Data provenance is ChEMBL document CHEMBL4190379.

# Test system: MX1
# Assay Protocol: Antiproliferative activity against human MX1 cells incubated for 72 hrs by cell-titer Glo assay
# Format: functional, cell-based
# Stated Conditions: MX1, 72 h
Measure Name: pEC50
// scale note: pEC50 = -log10(conc_M); give the bare number

INSERT INTO assay_data (substance_smiles, subject_of_test, test_value) VALUES
  ('Cn1cc(-c2cc(CS(C)(=O)=O)ccc2NCC2CC2)c2cc[nH]c2c1=O', 'MX1', 7.37);

Return the recorded pEC50 value; entry: Cn1cc(-c2ccccc2NCC2CC2)c2cc[nH]c(=O)c21
5.48

Return the recorded pEC50 value; entry: CCS(=O)(=O)Nc1cnc2c(c1)-c1c[nH]c(=O)c3c1c(cn3C)CN2c1ccc(F)cc1F
7.74

Return the recorded pEC50 value; entry: Cn1cc2c3c(c[nH]c3c1=O)CN(CC1CC1)c1ccc(S(C)(=O)=O)cc1-2
7.82

----------
# Subject Of Test: Bromodomain-containing protein 4 (Homo sapiens, UniProt O60885)
# Assay Protocol: Binding affinity to BRD4 in human H1299 cells stably expressing E2 and HPV16-LCR luciferase reporter incubated for 24 hrs by Bright-Glo luciferase reporter gene assay based BRD4 engagement assay
# Type: cell-based
Each entry below lists one item and its recorded IC50 value.
Report only the number, with the unit µM understood.

// solved cases for IC50 follow
INSERT INTO results (substance_smiles, subject_of_test, measure_name, test_value) VALUES
  ('Cn1cc2c3c(c[nH]c3c1=O)CN(CC1CC1)c1ccc(CS(C)(=O)=O)cc1-2', 'Bromodomain-containing protein 4 (Homo sapiens, UniProt O60885)', 'IC50', 0.0046),
  ('CCC(=O)N1Cc2c[nH]c3c(=O)n(C)cc(c23)-c2cc(CS(C)(=O)=O)ccc21', 'Bromodomain-containing protein 4 (Homo sapiens, UniProt O60885)', 'IC50', 0.009),
  ('CCS(=O)(=O)Nc1ccc2c(c1)-c1c[nH]c(=O)c3c1c(cn3C)CN2c1ccccn1', 'Bromodomain-containing protein 4 (Homo sapiens, UniProt O60885)', 'IC50', 0.018);

Return the recorded IC50 value; entry: Cn1cc2c3c(c[nH]c(=O)c31)CN(CC1CC1)c1ccc(CS(C)(=O)=O)cc1-2
0.023

Return the recorded IC50 value; entry: Cn1cc2c3c(c[nH]c3c1=O)CN(c1ccc(F)cc1)c1ccc(CS(C)(=O)=O)cc1-2
0.0015

Return the recorded IC50 value; entry: Cn1cc(-c2ccccc2NCC2CC2)c2cc[nH]c(=O)c21
5

----------
Each entry below lists one item and its recorded log10 Ki value.
# Subject Of Test: Bromodomain-containing protein 4 (Homo sapiens, UniProt O60885)
# Assay Protocol: Binding affinity to His-tagged BRD4 bromodomain 1 to 2 (K57 to K550 amino acids) (unknown origin) using Alexa647-labeled BET-inhibitor as fluorescent probe by bromodomain TR-FRET binding assay
# Format: single protein
The common logarithm of Ki in nM is what is listed.

Return the recorded log10 Ki value; entry: Cn1cc2c3c(c[nH]c3c1=O)CN(c1ccc(F)cc1)c1ccc(CS(C)(=O)=O)cc1-2
-0.06

Return the recorded log10 Ki value; entry: CCS(=O)(=O)Nc1ccc2c(c1)-c1c[nH]c(=O)c3c1c(cn3C)CN2c1ccccn1
0.43
